system: isolated guinea pig trachea; assay: Beta-blocking activity by the isolated guinea pig trachea method; settings: concentration able to inhibit 50% of the response; 37° C., 12 minutes before stimulation
IC50, antagonism in the response of the isolated guinea pig trachea to isoprenaline values for the compounds below.
Report the value in µg/mL with no unit label.

Jot down IC50, antagonism in the response of the isolated guinea pig trachea to isoprenaline (isolated guinea pig trachea) of CC(C)(C)NCC(O)COc1ccc2c(c1)NC(=O)CS2 (stereo not drawn) [IX] .
0.568

Jot down IC50, antagonism in the response of the isolated guinea pig trachea to isoprenaline (isolated guinea pig trachea) of CC(C)(C)NCC(O)COc1cccc2c1SCC(=O)N2 (stereo not drawn) [XVII] .
0.0015

Jot down IC50, antagonism in the response of the isolated guinea pig trachea to isoprenaline (isolated guinea pig trachea) of CCC(C)NCC(O)COc1ccc2c(c1)NC(=O)CS2 (stereo not drawn) [Compound X] .
0.66

Continuing:
Jot down IC50, antagonism in the response of the isolated guinea pig trachea to isoprenaline (isolated guinea pig trachea) of CC(C)CNCC(O)COc1cccc2c1SCC(=O)N2 (stereo not drawn) [XVI] .
0.112

Jot down IC50, antagonism in the response of the isolated guinea pig trachea to isoprenaline (isolated guinea pig trachea) of CC(C)NCC(O)COc1cccc2c1SCC(=O)N2 (stereo not drawn) [XV] .
0.123

Jot down IC50, antagonism in the response of the isolated guinea pig trachea to isoprenaline (isolated guinea pig trachea) of CC(C)CNCC(O)COc1ccc2c(c1)SCC(=O)N2 (stereo not drawn) [Compound XII] .
0.806
